Reported polymerase ribozyme fitness (log ratio) is given for each of the following variants.
B1: TPR 5TU (parent)
chain: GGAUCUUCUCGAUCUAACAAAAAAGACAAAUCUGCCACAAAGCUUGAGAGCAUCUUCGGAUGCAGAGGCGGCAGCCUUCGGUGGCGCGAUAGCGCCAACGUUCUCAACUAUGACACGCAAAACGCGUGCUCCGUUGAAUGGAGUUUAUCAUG

- Variants of: B1
- PROTOCOL_TEXT: polymerase ribozyme fitness, log enrichment relative to wild type (log ratio); higher = more active; in vitro selection for triplet polymerase activity
Fewer inactive variants are shown than the library holds.
The response must contain the number and no unit.

Example cases with answers are listed next.
variant C10G C35U , polymerase ribozyme fitness (log ratio) observed: -3.4

variant A97G A150C , polymerase ribozyme fitness (log ratio) observed: -2.96

variant C63U C85U C87U , polymerase ribozyme fitness (log ratio) observed: -0.425

variant A39G A47C C123U A150G G152A , polymerase ribozyme fitness (log ratio) observed: -3.23

Continue with the variant presented below.
variant G86U G140U , polymerase ribozyme fitness (log ratio) observed: -3.83
